Target: CDK2/CycE (Homo sapiens)
Assay: CDK2/CycE kinase assay (TR-FRET, 2 mM ATP)
Conditions: 2 mM ATP (high ATP); median; read-out: CDK2/CyclinE, 2 mM ATP (high ATP), IC50 (median)
Procedure: CDK2/CycE-inhibitory activity of compounds of the present invention was quantified employing the CDK2/CycE TR-FRET assay as described in the following paragraphs. […] The resulting mixture was incubated 1 h at 22° C. to allow the formation of complex between the phosphorylated biotinylated peptide and the detection reagents. Subsequently the amount of phosphorylated substrate was evaluated by measurement of the resonance energy transfer from the Eu-chelate to the streptavidine-XL. […]
Reported IC50 is given for each of the following molecules.
PROPERTY_NAME: IC50 (µM)

                                   molecule  property_name  unit_tag  meas_value
0  FC(F)(F)CN1CCN(c2nc(NCc3nc4ccccc4[nH]3)n3ncc(Br)c3n2)CC1 [Example 139]           IC50        µM        14.7
1  Cc1cnn2c(NCc3nc4ccccc4[nH]3)nc(N(C)CC(C)(C)O)nc12 [Example 397]           IC50        µM        17.2
2  CO[C@@H]1CCN(c2nc(NCc3nc4ccccc4[nH]3)n3ncc(Br)c3n2)C1 [Example 223]           IC50        µM        14.4
3  Brc1cnn2c(NCc3nc4ccccc4[nH]3)nc(N3CCNCC3)nc12 [Example 128]           IC50        µM        9.63

====

target: CYCLIN K (nuclear staining in CAL-120 cells) (Homo sapiens, UniProt O75909); construct: endogenous in cells; host or cells: CAL-120 human breast cancer cells (DSMZ ACC 459); assay: CYCLIN K nuclear protein level: immunofluorescence high content analysis (CAL-120); type: cell-based; conditions: 24 h, 50% reduction of nuclear CCNK staining intensity, median, read-out: CYCLIN K degradation IF, DC50-[mol/l] (median)
Sequence (O75909 whole entry): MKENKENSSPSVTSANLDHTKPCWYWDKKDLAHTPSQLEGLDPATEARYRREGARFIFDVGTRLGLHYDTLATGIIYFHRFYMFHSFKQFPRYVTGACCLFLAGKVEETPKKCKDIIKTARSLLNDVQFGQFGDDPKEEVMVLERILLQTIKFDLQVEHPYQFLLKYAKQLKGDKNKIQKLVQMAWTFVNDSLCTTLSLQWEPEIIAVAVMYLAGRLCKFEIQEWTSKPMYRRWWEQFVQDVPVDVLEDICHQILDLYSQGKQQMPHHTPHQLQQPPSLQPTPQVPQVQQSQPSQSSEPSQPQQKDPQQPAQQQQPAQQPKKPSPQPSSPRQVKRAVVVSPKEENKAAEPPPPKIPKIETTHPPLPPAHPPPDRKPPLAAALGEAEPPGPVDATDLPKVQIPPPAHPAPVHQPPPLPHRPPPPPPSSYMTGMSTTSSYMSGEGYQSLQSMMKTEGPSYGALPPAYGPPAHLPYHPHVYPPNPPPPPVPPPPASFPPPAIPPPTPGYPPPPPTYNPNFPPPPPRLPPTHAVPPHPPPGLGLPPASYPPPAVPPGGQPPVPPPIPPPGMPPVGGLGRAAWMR
Sequence (Q9NYV4 whole entry partner): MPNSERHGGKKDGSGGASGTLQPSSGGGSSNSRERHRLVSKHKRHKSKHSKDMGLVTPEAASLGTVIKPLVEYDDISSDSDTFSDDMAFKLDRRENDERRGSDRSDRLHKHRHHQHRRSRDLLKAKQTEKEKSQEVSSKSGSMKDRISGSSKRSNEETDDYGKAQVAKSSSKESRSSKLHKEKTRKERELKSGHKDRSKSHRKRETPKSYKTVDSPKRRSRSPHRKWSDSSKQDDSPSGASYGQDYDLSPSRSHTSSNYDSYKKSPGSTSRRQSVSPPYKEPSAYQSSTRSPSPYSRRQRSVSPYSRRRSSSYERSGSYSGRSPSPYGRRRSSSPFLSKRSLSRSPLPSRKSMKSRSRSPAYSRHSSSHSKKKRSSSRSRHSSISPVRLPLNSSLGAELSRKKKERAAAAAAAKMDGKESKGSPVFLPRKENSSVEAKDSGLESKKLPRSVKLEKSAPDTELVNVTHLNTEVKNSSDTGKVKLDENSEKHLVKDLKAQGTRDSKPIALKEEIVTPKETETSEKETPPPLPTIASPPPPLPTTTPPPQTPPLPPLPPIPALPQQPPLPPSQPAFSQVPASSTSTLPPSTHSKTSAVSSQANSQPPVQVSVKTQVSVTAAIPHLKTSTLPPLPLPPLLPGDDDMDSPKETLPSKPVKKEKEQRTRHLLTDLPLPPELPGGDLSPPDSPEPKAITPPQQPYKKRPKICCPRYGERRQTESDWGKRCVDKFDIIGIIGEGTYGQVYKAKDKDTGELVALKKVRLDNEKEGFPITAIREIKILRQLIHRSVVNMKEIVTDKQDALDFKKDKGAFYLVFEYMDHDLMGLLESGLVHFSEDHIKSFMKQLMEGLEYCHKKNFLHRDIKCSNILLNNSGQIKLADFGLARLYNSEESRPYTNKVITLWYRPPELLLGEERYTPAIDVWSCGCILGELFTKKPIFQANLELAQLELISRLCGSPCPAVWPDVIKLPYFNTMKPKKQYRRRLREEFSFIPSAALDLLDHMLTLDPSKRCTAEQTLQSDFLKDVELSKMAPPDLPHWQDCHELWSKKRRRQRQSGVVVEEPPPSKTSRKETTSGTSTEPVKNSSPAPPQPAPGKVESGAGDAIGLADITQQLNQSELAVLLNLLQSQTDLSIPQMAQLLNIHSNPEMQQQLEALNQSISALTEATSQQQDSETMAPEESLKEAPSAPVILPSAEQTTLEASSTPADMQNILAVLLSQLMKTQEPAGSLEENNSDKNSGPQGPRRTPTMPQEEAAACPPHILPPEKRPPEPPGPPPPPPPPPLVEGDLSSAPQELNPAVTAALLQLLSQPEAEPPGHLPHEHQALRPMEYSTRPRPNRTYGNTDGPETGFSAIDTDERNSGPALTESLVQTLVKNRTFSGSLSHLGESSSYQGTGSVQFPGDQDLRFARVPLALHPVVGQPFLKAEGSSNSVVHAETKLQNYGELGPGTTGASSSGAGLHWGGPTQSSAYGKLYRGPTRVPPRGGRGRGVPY
Reported log10(DC50) is given for each of the following molecules.
PROPERTY_NAME: log10(DC50) (log10 of the value in pM)

                                smiles_text  meas_value
0  Fc1ccc2[nH]c(CNc3nc(N4CCN5CCC4CC5)nc4c(C(F)(F)F)cnn34)nc2c1F        2.81
1  Clc1ccc(-c2nnc(CNc3nc(N4CCOCC4)nc4c(Br)cnn34)[nH]2)cc1        4.65
2  CC(C)c1cnn2c(NCc3nc4ccccc4[nH]3)nc(N3CCOC[C@@H]3C)nc12        3.37
3  C[C@@H]1CN(c2nc(NCc3nc4c(F)c(F)ccc4[nH]3)n3ncc(C4CC4)c3n2)C[C@H](C)N1        2.62
4  Cc1ccc2[nH]c(CNc3nc(N4C[C@@H]5CCCN[C@@H]5C4)nc4c(Br)cnn34)nc2c1        2.08
5  Fc1cc2nc(CNc3nc(N4CCOCC4)nc4c(Br)cnn34)[nH]c2cc1F        2.46
6  Fc1ccc2[nH]c(CNc3nc(N4C[C@@H]5C[C@H]4CO5)nc4c(C5CC5)cnn34)nc2c1F        3.01
7  Fc1ccccc1-c1cnc(CNc2nc(N3CCOCC3)nc3c(Br)cnn23)[nH]1        2.76
8  Fc1ccc2[nH]c(CNc3nc(N4C[C@H]5CC[C@@H](C4)N5)nc4c(C5CC5)cnn34)nc2c1F        2.75
9  CN1C2CCC1CN(c1nc(NCc3nc4c(F)cccc4[nH]3)n3ncc(C(F)(F)F)c3n1)C2        2.82
